Target: GST-PSD95 PDZ domain 3 (human)
Assay: G assay
outcome_measure: Average OD
Just so you know, I need the unit written after the number.

Hello, please tell me recorded Average OD for this one: SFTSILTCHQRRTQRKETVA (modifications not checked) [GluR5-2 (rat) PL peptide]
4 OD

Supply measured Average OD of SYPTPRPYPKPAPSSGKDYV (modifications not checked) [claudin 1 PL peptide] in your reply.
0.85 OD

For the binder SSPDSSYQGKGFVMSRAMYV (modifications not checked) [Nectin 2 PL peptide] , give its reported Average OD.
0.91 OD

# return recorded Average OD for entry GRWTGRAMSAWKPTRRETEV (modifications not checked) [HPV E6 #35 (cysteine-free) PL peptide]
4 OD
